tested on: MOLM14 cells; assay: alamarBlue cytotoxicity assay, 48h; assay type: cell-based, human; conditions: Homo sapiens, MOLM-14; MOLM14 (AML), 48h, RPMI + 10% FBS
pIC50: −log10 of the molar value.
Record Y whenever pIC50 is at 7 or higher; record N when lower.

These recorded examples may help you get a feel for the data.
C[C@]12O[C@H](C[C@]1(O)CO)n1c3ccccc3c3c4c(c5c6ccccc6n2c5c31)CNC4=O | Y
CNC(=O)c1cc(Oc2ccc(NC(=O)Nc3ccc(Cl)c(C(F)(F)F)c3)cc2)ccn1 | Y
C[C@H]1[C@@H](O)O[C@@H]2O[C@@]3(C)CC[C@H]4[C@H](C)CC[C@@H]1[C@@]24OO3 [DHA, dihydroartemisinin] | N
COc1cc([C@@H]2c3cc4c(cc3[C@@H](O[C@@H]3O[C@@H]5CO[C@@H](C)O[C@H]5[C@H](O)[C@H]3O)[C@H]3COC(=O)[C@H]23)OCO4)cc(OC)c1O [ETO, etoposide] | N

Continue with the next compound.
Say whether C[C@H]1[C@H](OC(=O)CCC(=O)O)O[C@@H]2O[C@@]3(C)CC[C@H]4[C@H](C)CC[C@@H]1[C@@]24OO3 [AS, artesunate] shows pIC50 of 7 or more.
N

====

tested on: CCRF-CEM cells; test: alamarBlue cytotoxicity assay, 48h; format: cell-based, human; conditions: Homo sapiens, CCRF-CEM (T-ALL), RPMI + 10% FBS
outcomeMeasure: pIC50
Please keep in mind that pIC50 is minus log10 of the molar concentration; only the number is needed.

Suppose we examine the molecule C[C@H]1[C@H](OC(=O)CCC(=O)O)O[C@@H]2O[C@@]3(C)CC[C@H]4[C@H](C)CC[C@@H]1[C@@]24OO3 [AS, artesunate] ; what pIC50 value has been reported?
5.13

====

tested on: MV-4-11 cells; assay: alamarBlue cytotoxicity assay, 48h; assay type: cell-based, human; details: Homo sapiens, MV4-11, MV-4-11 (AML/B-ALL), RPMI + 10% FBS
outcomeMeasure: IC50 (µM)
Number only, in µM; omit the unit.

What does the record list as IC50 for C[C@H]1[C@H](OC(=O)CCC(=O)O)O[C@@H]2O[C@@]3(C)CC[C@H]4[C@H](C)CC[C@@H]1[C@@]24OO3 [AS, artesunate] ?
0.796
